- Experiment notes: in vitro
- Measurement setup: rat, gh3-tre-luc cells, AC50 (uM) modified / 1000
Structures can show the parent of a compound that is named as a salt.
Quantity kind: CC50 at 24 h

{"Compound": "N[C@@H]1[C@H]2CN(c3nc4c(cc3F)c(=O)c(C(=O)O)cn4-c3ccc(F)cc3F)C[C@@H]12 [Trovafloxacin mesylate]", "Result value": "20.9 µM"}
{"Compound": "CC(CN1c2ccccc2Sc2ccccc21)N(C)C (stereo not drawn) [Promethazine hydrochloride]", "Result value": "12.2 µM"}
{"Compound": "CC/C=C\\CCOC(=O)CCCCC [(3Z)-Hex-3-en-1-yl hexanoate]", "Result value": "> 90 µM"}
{"Compound": "CCCCNS(=O)(=O)c1ccc(C)cc1 [N-Butyl-p-toluenesulfonamide]", "Result value": "> 90 µM"}
{"Compound": "NC(=O)c1cn(Cc2c(F)cccc2F)nn1 [Rufinamide]", "Result value": "> 50 µM"}
{"Compound": "CCCCCC", "Result value": "> 90 µM"}

Q) Record request: CC50 at 24 h value, item CC1=C(/C=C/C(C)=C/C=C/C(C)=C/C=C/C=C(C)/C=C/C=C(C)/C=C/C2=C(C)C(=O)CCC2(C)C)C(C)(C)CCC1=O
A) > 50 µM

Q) Now the same for Brc1cc(Oc2cc(Br)c(Br)c(Br)c2Br)c(Br)c(Br)c1Br
A) > 90 µM

###

Measured CC50 at 24 h accompanies every entry in the list below.
- Experiment notes: in vitro
- Measurement setup: rat, gh3-tre-luc cells, AC50 (uM) modified / 1000
Where a name gives a salt, the structure may show the parent alone.

# example entries with known answers
{"Molecule": "N=C(N)NN [Aminoguanidine hydrochloride]", "CC50 at 24 h": "> 90 µM"}
{"Molecule": "NC1CCC(CC2CCC(N)CC2)CC1 (stereo not shown)", "CC50 at 24 h": "> 90 µM"}
{"Molecule": "NS(=O)(=O)c1cc(-c2nnn[nH]2)c(NCc2cccs2)cc1Cl [Azosemide]", "CC50 at 24 h": "> 50 µM"}
{"Molecule": "CCN(CC)CCNC(=O)c1c(C)[nH]c(/C=C2\\C(=O)Nc3ccc(F)cc32)c1C [Sunitinib malate]", "CC50 at 24 h": "20.1 µM"}
{"Molecule": "C=C(C)[C@@H]1CC=C(C)C(=O)C1 [R-(-)-Carvone]", "CC50 at 24 h": "> 90 µM"}
{"Molecule": "Cc1ccc(C)c(O)c1C", "CC50 at 24 h": "> 90 µM"}
{"Molecule": "CCCCCCCCCCO[C@@H]1O[C@H](CO)[C@@H](O)[C@H](O)[C@H]1O [Decyl beta-D-glucopyranoside]", "CC50 at 24 h": "> 90 µM"}
{"Molecule": "CCC(N)(CO)CO", "CC50 at 24 h": "> 90 µM"}

Q) Record request: CC50 at 24 h value, item COC(C)(C)OC
A) > 90 µM

Q) Now the same for CC(CC=O)c1ccccc1 (stereo not shown)
A) > 90 µM

###

- System: GH3-TRE-Luc cell line
- Measurement setup: read-out: AC50 (uM) modified / 1000; Tox21_110001=Tox21_202791; viability, 1 nM T3 present, 24 h
Quantity kind: CC50 (µM)
Value expressed in µM; do not type the unit.

Q) Record request: CC50 value, item Oc1c(Cl)cc(Cl)cc1Sc1cc(Cl)cc(Cl)c1O [Sodium bithionolate]
A) 7.44
